Tested on: carageenan-induced edema
Assay: Carrageenan-induced rat paw edema test (anti-inflammatory activity)
Type: in vivo, Sprague-Dawley rats
Conditions: Rattus norvegicus, po, 3 h, carrageenan-induced rat paw edema; defined in Example 397; read-out: % Protection
Experimental Readout: inhibition in vivo at 50 mg/kg (%)
# output: bare number, implied unit %

Guide cases for inhibition in vivo at 50 mg/kg, answers given:
1. CCOC(=O)Nc1nc(-c2ccccc2)c(-c2nc3ccccc3c(=O)n2-c2ccc(Cl)cc2)s1 81
2. CC(=O)c1ccc(-n2c(-c3sc(Nc4ccc(Cl)cc4)nc3C)nc3ccccc3c2=O)cc1 13

// Input: Cc1ccc(Nc2nc(C)c(-c3nc4ccccc4c(=O)n3-c3ccc(Cl)cc3)s2)cc1 . Output its inhibition in vivo at 50 mg/kg only. 71.9

Consider the compound Cc1nc(Nc2ccccc2)sc1-c1nc2ccccc2c(=O)n1-c1ccccc1 . State its measured inhibition in vivo at 50 mg/kg. 12

* * *

System: vascular smooth muscle cells (VSMC)
Experiment: LDH release cytotoxicity in VSMC
Type: cell-based
Conditions: VSMC, 10 μM, 48 h, relative to vehicle
Experimental Readout: LDH release % Increase VSMC (%)
All answers are understood in %, so give the number only.

Answer with the recorded LDH release % Increase VSMC for the molecule listed here: COc1ccc(-n2c(-c3cc(-c4ccc(S(C)(=O)=O)cc4)c(N4CCOCC4)s3)nc3ccccc3c2=O)cc1 [PMCR216] −10

Respond only with LDH release % Increase VSMC recorded for CNc1nc(C)c(-c2nc3ccccc3c(=O)n2-c2ccccc2C)s1 [PMCR19] 4

Fill in reported LDH release % Increase VSMC for this entry: COC(=O)Nc1nc(-c2ccccc2)c(-c2nc3ccccc3c(=O)n2-c2ccccc2Cl)s1 [PMCR122] 20

Input COc1ccccc1-n1c(-c2cc(-c3ccncc3)c(N3CCOCC3)s2)nc2ccccc2c1=O [PMCR206] , output reported LDH release % Increase VSMC. 0

Indicate the recorded LDH release % Increase VSMC value for this molecule: Cc1nc(Nc2ccc(Cl)cc2)sc1-c1nc2ccccc2c(=O)n1-c1ccccc1Cl [PMCR120] 11

Fill in reported LDH release % Increase VSMC for this entry: Cc1ccccc1-n1c(-c2sc(Nc3ccccc3)nc2C)nc2ccccc2c1=O [PMCR20] 9

* * *

System: carageenan-induced edema
Experiment: Carrageenan-induced rat paw edema test (anti-inflammatory activity)
Format: in vivo, Sprague-Dawley rats
Settings: rat paw edema, 50 mg/kg, reading 3 hours after carrageenan; [(Control−Test)/Control]×100%
Description: Sprague-Dawley rats, male and female, 150-250 g will be used in an edema test. Rats will be deprived of food but not water for 18 hours prior to the experiment. […] The reading will be repeated 3 hours later. The displacement readings give a measure of carageenan-induced edema. […] The percentage protection at 50-mg/kg doses was calculated according to the following formula: % Protection=[(Control−Test)/Control]×100%. […]
Experimental Readout: % Protection P
Answer format reminder: number followed by unit.

Examples with answers:
Compound	Experimental System	Experimental Readout	Result
CSc1ccc(C(=O)c2cc(-c3ccc(Cl)cc3)c(N3CCOCC3)s2)cc1 [Example 83]	carageenan-induced edema	% Protection P	27%
Cc1ccccc1-n1c(-c2cc(-c3ccccc3)c(N3CCOCC3)s2)nc2ccccc2c1=O [Example 278]	carageenan-induced edema	% Protection P	37%
CC(=O)Nc1ccc(-c2cc(-c3nc4ccccc4c(=O)n3-c3ccc(Cl)cc3)sc2N2CCOCC2)cc1 [Example 311]	carageenan-induced edema	% Protection P	28%
Cc1ccc(C(=O)c2sc(Nc3ccccc3)nc2N)cc1 [Example 322]	carageenan-induced edema	% Protection P	23.98%
CSc1ccc(C(=O)c2cc(-c3ccc(NC(C)=O)cc3)c(N3CCOCC3)s2)cc1 [Example 71]	carageenan-induced edema	% Protection P	2.5%
CSc1ccc(-c2cc(-c3nc4ccccc4c(=O)n3-c3ccccc3C)sc2N2CCOCC2)cc1 [Example 282]	carageenan-induced edema	% Protection P	51%

Now turn to the next compound.
Using carageenan-induced edema as the test system, report measured % Protection P of CC(=O)c1ccc(-n2c(-c3cc(-c4ccccc4)c(N4CCOCC4)s3)nc3ccccc3c2=O)cc1 [Example 314] . 36%
